Reference source for all entries: patent US8754071B2

molecular target: c-kit (Homo sapiens); construct: human Mo7e cells which endogenously express c-kit; endogenous in cells; host or cells: human Mo7e cells (promegakaryocytic leukemia line), stimulated with human recombinant SCF; experiment: Mo7e cell proliferation assay (SCF dependent proliferation); format: cell-based; conditions: Table 2; human Mo7e cells stimulated with SCF, 48 hours, CellTiter Glo; 1% FBS; read-out: c-kit (Mo7e)
Overview of recorded pIC50 for various molecules
Lab note — pIC50 values are minus log10 of concentrations in M.

MOLECULE	MEASURED RESULT
Cc1ccc(-c2noc(C3CN(S(=O)(=O)C4CCOCC4)C3)n2)cc1NC(=O)c1cnc2ccccn12 [F160]	6.42
Cc1ccc(-c2noc(C3CCN(C(=O)OC(C)(C)C)C3)n2)cc1NC(=O)c1cnc2ccccn12 (centres unmarked) [F107]	6.04
Cc1cc(F)c(-c2noc(C3CN(S(C)(=O)=O)C3)n2)cc1NC(=O)c1cnc2ccccn12 [F232]	6.31
COC(=O)N1CCOC[C@H]1c1nc(-c2ccc(C)c(NC(=O)c3cnc4ccccn34)c2)no1 [F164]	6.57
Cc1ccc(-c2noc(CNC(=O)CC3CCCO3)n2)cc1NC(=O)c1cnc2ccccn12 (centres unmarked) [F145]	6.35

# return recorded pIC50 for input Cc1ccc(-c2noc(C[C@@H]3CCN(C(=O)OC(C)(C)C)C3)n2)cc1NC(=O)c1cnc2ccccn12 [F184] 6.30

# return recorded pIC50 for input CCCS(=O)(=O)N1CC(c2nc(-c3ccc(F)c(NC(=O)c4cnc5ccccn45)c3)no2)C1 [F156] 6.91

# return recorded pIC50 for input CS(=O)(=O)N1CC(c2nc(-c3ccc(F)c(NC(=O)c4cnc5ccccn45)c3)no2)C1 [F154] 6.33

# return recorded pIC50 for input Cc1ccc(-c2noc([C@H]3COCCN3S(C)(=O)=O)n2)cc1NC(=O)c1cnc2ccccn12 [F167] 6.99

# return recorded pIC50 for input COCC(=O)NC1(c2nc(-c3ccc(C)c(NC(=O)c4cnc5ccccn45)c3)no2)COC1 [F141] 6.15

###

molecular target: c-kit (Homo sapiens); construct: human Mo7e cells which endogenously express c-kit; endogenous in cells; host or cells: human Mo7e cells (promegakaryocytic leukemia line), stimulated with human recombinant SCF; test: Mo7e cell proliferation assay (SCF dependent proliferation); format: cell-based; settings: Table 2; human Mo7e cells stimulated with SCF, 48 hours, CellTiter Glo; 1% FBS; read-out: c-kit (Mo7e)
PROPERTY LABEL: pIC50
Lab note — pIC50 values are minus log10 of concentrations in M.

Consider the following illustrative entries.
COMPOUND	MEASURED RESULT
Cc1ccc(-c2noc(C3CN(C(=O)OC(C)(C)C)C3)n2)cc1NC(=O)c1cnc2ccccn12	6.21
CC(=O)N1CCC(c2nc(-c3ccc(C)c(NC(=O)c4cnc5ccccn45)c3)no2)C1 (centres unmarked)	6.62
Cc1ccc(-c2noc([C@@H](C)N3CCC(F)(F)C3)n2)cc1NC(=O)c1cnc2ccccn12	6.92
Cc1ccc(-c2noc([C@@H]3CCN3)n2)cc1NC(=O)c1cnc2ccccn12	6.27
Cc1ccc(-c2noc([C@@H]3CN(C(=O)OC(C)(C)C)CCO3)n2)cc1NC(=O)c1cnc2ccccn12	6.53
Cc1ccc(-c2noc([C@@H]3CCCN3)n2)cc1NC(=O)c1cnc2ccccn12	6.32

# return recorded pIC50 for input CCS(=O)(=O)N1CC(c2nc(-c3ccc(F)c(NC(=O)c4cnc5ccccn45)c3)no2)C1 6.92

# return recorded pIC50 for input COC(=O)N1CC(c2nc(-c3ccc(C)c(NC(=O)c4cnc5ccc(-n6ccnc6)cn45)c3)no2)C1 6.38

# return recorded pIC50 for input Cc1ccn2c(C(=O)Nc3cc(-c4noc(N5CC(S(C)(=O)=O)C5)n4)ccc3C)cnc2c1 5.86

# return recorded pIC50 for input Cc1ccc(-c2noc(C3CN(S(=O)(=O)C4CCOC4)C3)n2)cc1NC(=O)c1cnc2ccccn12 (centres unmarked) 6.80

# return recorded pIC50 for input Cc1ccc(-c2noc([C@@H](C)N3CC(F)(F)C3)n2)cc1NC(=O)c1cnc2ccccn12 6.95

# return recorded pIC50 for input Cc1ccc(-c2noc(C3CN(S(=O)(=O)c4cn(C)cn4)C3)n2)cc1NC(=O)c1cnc2ccccn12 5.40

# return recorded pIC50 for input Cc1ccc(-c2noc(C3C[C@@H](O)CN3S(C)(=O)=O)n2)cc1NC(=O)c1cnc2ccc(F)cn12 (some centres unmarked) 5.94

# return recorded pIC50 for input CC(C)(C)OC(=O)N1CC(c2nc(-c3ccc(F)c(NC(=O)c4cnc5ccccn45)c3)no2)C1 6.00

# return recorded pIC50 for input Cc1ccc(-c2noc(C3(N)COC3)n2)cc1NC(=O)c1cnc2ccccn12 5.77

# return recorded pIC50 for input Cc1ccc(-c2noc(C3CCO3)n2)cc1NC(=O)c1cnc2ccccn12 (centres unmarked) 6.46

###

biological target: c-kit (Homo sapiens); construct: human Mo7e cells which endogenously express c-kit; endogenous in cells; host or cells: human Mo7e cells (promegakaryocytic leukemia line), stimulated with human recombinant SCF; assay: Mo7e cell proliferation assay (SCF dependent proliferation); format: cell-based; conditions: Table 2; human Mo7e cells stimulated with SCF, 48 hours, CellTiter Glo; 1% FBS; read-out: c-kit (Mo7e)
Overview of recorded pIC50 for various compounds
Lab note — pIC50 values are minus log10 of concentrations in M.

Consider the following illustrative entries.
COMPOUND	pIC50
Cc1ccc(-c2noc(CNC(=O)N3CCOCC3)n2)cc1NC(=O)c1cnc2ccccn12	5.71
Cc1ccc(-c2noc(C3CNCCO3)n2)cc1NC(=O)c1cnc2ccccn12 (centres unmarked)	6.40
COC(=O)N1CC(c2nc(-c3ccc(C)c(NC(=O)c4cnc5ccc(C(F)(F)F)cn45)c3)no2)C1	6.66
COC(=O)N1CC(c2nc(-c3cc(NC(=O)c4cnc5ccccn45)c(C)cc3F)no2)C1	6.36
COC(=O)N1CC(c2nc(-c3ccc(C)c(NC(=O)c4cnc5cc(C#N)ccn45)c3)no2)C1	6.74

Param request: pIC50 | system c-kit (Homo sapiens) | item Cc1ccc2ncc(C(=O)Nc3cc(-c4noc(COC5CNC5)n4)ccc3C)n2c1 5.67

Param request: pIC50 | system c-kit (Homo sapiens) | item COC(=O)N1CC(c2noc(-c3ccc(C)c(NC(=O)c4cnc5ccccn45)c3)n2)C1 6.48

Param request: pIC50 | system c-kit (Homo sapiens) | item CCN1CC(c2nc(-c3ccc(C)c(NC(=O)c4cnc5ccccn45)c3)no2)C1 5.95

###

Overview of recorded IC50 for various compounds
target: c-kit (Homo sapiens, UniProt P10721); construct: human Mo7e cells which endogenously express c-kit; endogenous in cells; host or cells: human Mo7e cells (promegakaryocytic leukemia line), stimulated with human recombinant SCF; experiment: Mo7e cell proliferation assay (SCF dependent proliferation); assay type: cell-based; conditions: Table 2; human Mo7e cells stimulated with SCF, 48 hours, CellTiter Glo; 1% FBS; read-out: c-kit (Mo7e)
Sequence (P10721 26-976): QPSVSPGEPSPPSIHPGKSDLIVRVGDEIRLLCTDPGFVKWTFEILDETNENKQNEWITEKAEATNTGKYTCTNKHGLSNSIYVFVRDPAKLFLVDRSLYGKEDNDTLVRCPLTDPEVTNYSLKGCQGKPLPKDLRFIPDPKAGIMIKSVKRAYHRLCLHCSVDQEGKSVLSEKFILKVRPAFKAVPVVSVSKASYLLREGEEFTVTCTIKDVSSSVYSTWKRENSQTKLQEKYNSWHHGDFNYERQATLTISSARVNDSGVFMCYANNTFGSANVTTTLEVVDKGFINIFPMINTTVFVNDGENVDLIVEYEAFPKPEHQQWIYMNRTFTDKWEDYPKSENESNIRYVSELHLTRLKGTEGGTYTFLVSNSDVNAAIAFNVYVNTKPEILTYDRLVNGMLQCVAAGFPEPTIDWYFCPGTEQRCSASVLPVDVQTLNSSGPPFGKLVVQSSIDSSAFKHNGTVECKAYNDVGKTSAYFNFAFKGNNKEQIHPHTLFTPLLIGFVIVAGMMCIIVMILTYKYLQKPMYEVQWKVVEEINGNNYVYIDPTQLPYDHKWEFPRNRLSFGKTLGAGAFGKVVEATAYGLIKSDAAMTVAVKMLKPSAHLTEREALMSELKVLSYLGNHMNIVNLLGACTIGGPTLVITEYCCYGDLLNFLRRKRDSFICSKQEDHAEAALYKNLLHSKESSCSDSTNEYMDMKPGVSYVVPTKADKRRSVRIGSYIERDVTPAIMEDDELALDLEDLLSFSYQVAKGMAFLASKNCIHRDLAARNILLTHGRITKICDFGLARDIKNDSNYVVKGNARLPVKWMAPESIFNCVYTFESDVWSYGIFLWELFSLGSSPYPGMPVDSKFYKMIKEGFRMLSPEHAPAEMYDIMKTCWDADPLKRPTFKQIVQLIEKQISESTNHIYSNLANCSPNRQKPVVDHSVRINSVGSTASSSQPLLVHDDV

Consider the following illustrative entries.
SMILES CODE	TARGET DESC	IC50
Cc1ccc(-c2noc(C[C@H]3CCNC3)n2)cc1NC(=O)c1cnc2ccccn12	c-kit (Homo sapiens, UniProt P10721)	1650 nM
Cc1ccc(-c2noc([C@@H]3CCCC(=O)N3)n2)cc1NC(=O)c1cnc2ccccn12	c-kit (Homo sapiens, UniProt P10721)	434 nM
Cc1ccc(-c2noc(CN3CC(C#N)C3)n2)cc1NC(=O)c1cnc2ccccn12	c-kit (Homo sapiens, UniProt P10721)	310 nM

Param request: IC50 | system c-kit (Homo sapiens, UniProt P10721) | item Cc1ccc(-c2noc(C3(NC(=O)OC(C)(C)C)COC3)n2)cc1NC(=O)c1cnc2ccccn12 139 nM

###

molecular target: c-kit (Homo sapiens, UniProt P10721); construct: human Mo7e cells which endogenously express c-kit; endogenous in cells; host or cells: human Mo7e cells (promegakaryocytic leukemia line), stimulated with human recombinant SCF; assay: Mo7e cell proliferation assay (SCF dependent proliferation); format: cell-based; settings: Table 1; human Mo7e cells stimulated with SCF, 48 hours, CellTiter Glo; 1% FBS; read-out: c-kit (Mo7e)
PROPERTY LABEL: IC50 (nM)
Provide only the numeric value, understood in nM.

Consider the following illustrative entries.
SMILES CODE	UNITS LABEL	IC50
Cc1ccn2c(C(=O)Nc3cc(-c4noc(N5CC(F)(F)C5)n4)ccc3C)cnc2c1	nM	93
CCCCS(=O)(=O)N1CC(c2nc(-c3ccc(C)c(NC(=O)c4cnc5ccccn45)c3)no2)C1	nM	54
Cc1ccc(-c2noc([C@@H]3CCN3S(=O)(=O)C(C)C)n2)cc1NC(=O)c1cnc2ccccn12	nM	47

# return recorded IC50 for input Cc1ccc(-c2nc(N3CCOCC3)no2)cc1NC(=O)c1cnc2ccccn12 61

# return recorded IC50 for input Cc1ccc(-c2noc(C3CN(S(=O)(=O)C(F)F)C3)n2)cc1NC(=O)c1cnc2ccccn12 24

# return recorded IC50 for input Cc1ccc(-c2noc([C@@H]3CCN3S(C)(=O)=O)n2)cc1NC(=O)c1cnc2ccccn12 46

# return recorded IC50 for input COC(=O)N1CC(c2nc(-c3ccc(C)c(NC(=O)c4cnc5ccc(CCC#N)cn45)c3)no2)C1 64

# return recorded IC50 for input COC(=O)N1CC(c2nc(-c3ccc(C)c(NC(=O)c4cnc5cc(CCC(C)=O)ccn45)c3)no2)C1 30

# return recorded IC50 for input CCS(=O)(=O)N1CC(c2nc(-c3ccc(F)c(NC(=O)c4cnc5ccccn45)c3)no2)C1 120

# return recorded IC50 for input COC(=O)N1CC(c2nc(-c3ccc(C)c(NC(=O)c4cnc5ccc(C(F)(F)F)cn45)c3)no2)C1 218

# return recorded IC50 for input COC(=O)N1CCC(c2nc(-c3ccc(C)c(NC(=O)c4cnc5ccccn45)c3)no2)CC1 84

# return recorded IC50 for input Cc1ccc(-c2nc(N3CCC(F)CC3)no2)cc1NC(=O)c1cnc2ccccn12 34

# return recorded IC50 for input Cc1ccc(-c2noc(NC3CCOCC3)n2)cc1NC(=O)c1cnc2cc(F)ccn12 84

# return recorded IC50 for input Cc1ccc(-c2noc(CC3CCOCC3)n2)cc1NC(=O)c1cnc2ccccn12 27

# return recorded IC50 for input Cc1ccn2c(C(=O)Nc3cc(-c4noc(N5CCOCC5)n4)ccc3C)cnc2c1 64

# return recorded IC50 for input COC(=O)N1CC(c2nc(-c3ccc(C)c(NC(=O)c4cnc5cc(CCC(C)(C)O)ccn45)c3)no2)C1 51

# return recorded IC50 for input Cc1ccn2c(C(=O)Nc3cc(-c4noc(N5CCC(F)(F)CC5)n4)ccc3C)cnc2c1 31
